Experiment: Solubility of compound in JP2 at pH 6.8 after 1 hr at 37 degC
Format: physicochemical
Conditions: JP2, pH 6.8
quantity: solubility at 1 h (µg/mL)

chemical_smiles	endpoint_value
OCCCCOc1cc(CNc2nc3ccccc3n2[C@@H]2O[C@H](CO)[C@@H](O)[C@H]2O)ccc1-c1ccccc1	120
Nc1ncnc2c1nc(NCc1ccc(-c3ccccc3)cc1)n2[C@@H]1O[C@H](CO)[C@@H](O)[C@H]1O	3
Nc1ncnc2c1nc(NCc1ccc(-c3ccccc3)c(OCCCCO)c1)n2[C@@H]1O[C@H](CO)[C@@H](O)[C@H]1O	190
CCOc1cc(-c2ccccc2)ccc1CNc1nc2c(N)ncnc2n1[C@@H]1O[C@H](CO)[C@@H](O)[C@H]1O	2
COc1cc(CNc2nc3c(N)ncnc3n2[C@@H]2O[C@H](CO)[C@@H](O)[C@H]2O)ccc1-c1ccccc1	215

(P) COc1cc(-c2ccccc2)ccc1CNc1nc2c(N)ncnc2n1[C@@H]1O[C@H](CO)[C@@H](O)[C@H]1O
(Q) CCOc1cc(CNc2nc3c(N)ncnc3n2[C@@H]2O[C@H](CO)[C@@H](O)[C@H]2O)ccc1-c1ccccc1
Query :: Just tell me: smaller solubility at 1 h value, P or Q ? // output: label of the selected item
Result :: P
(P: 4 µg/mL, Q: 121 µg/mL)

* * *

Experiment: Clearance in Sprague-Dawley rat at 1 mg/kg, iv by LC/MS analysis
Assay type: ADME, organism-based
Conditions: in vivo
quantity: clearance (mL/min/kg)
Respond numerically; units are mL/min/kg and should not be typed.

Query :: For the molecule OCCCCOc1cc(CNc2nc3ccccc3n2[C@@H]2O[C@H](CO)[C@@H](O)[C@H]2O)ccc1-c1ccccc1 , what clearance is on record?
Result :: 6.57

* * *

Molecular target: Sodium/nucleoside cotransporter 2 (Homo sapiens)
Sequence (O43868 whole entry): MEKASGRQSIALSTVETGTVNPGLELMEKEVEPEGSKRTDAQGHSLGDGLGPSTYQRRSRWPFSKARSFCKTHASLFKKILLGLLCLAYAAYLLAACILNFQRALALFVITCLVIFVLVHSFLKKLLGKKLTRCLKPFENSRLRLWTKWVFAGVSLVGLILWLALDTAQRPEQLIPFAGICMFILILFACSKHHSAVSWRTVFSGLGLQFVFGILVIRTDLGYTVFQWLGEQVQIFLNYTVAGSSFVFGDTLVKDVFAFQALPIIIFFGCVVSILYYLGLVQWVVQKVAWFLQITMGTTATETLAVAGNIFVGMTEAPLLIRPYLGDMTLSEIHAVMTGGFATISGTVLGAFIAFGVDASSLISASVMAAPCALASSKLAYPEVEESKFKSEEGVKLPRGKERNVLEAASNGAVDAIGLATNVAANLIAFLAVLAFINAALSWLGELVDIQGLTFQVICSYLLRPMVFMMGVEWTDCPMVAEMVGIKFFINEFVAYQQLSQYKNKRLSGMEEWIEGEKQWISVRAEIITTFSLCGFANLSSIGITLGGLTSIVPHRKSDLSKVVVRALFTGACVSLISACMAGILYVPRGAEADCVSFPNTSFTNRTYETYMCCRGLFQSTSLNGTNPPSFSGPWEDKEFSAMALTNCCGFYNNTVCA
Test: Inhibition of human CNT2 expressed in African green monkey COS7 cells assessed as reduction of [14C]-inosine uptake by liquid scintillation counting analysis
quantity: IC50 (nM)

chemical_smiles	IC50 (nM)
Nc1ncnc2c1nc(NCc1ccc(-c3ccccc3)c(OCCO)c1)n2[C@@H]1O[C@H](CO)[C@@H](O)[C@H]1O	3100
CC(C)Oc1cc(-c2ccccc2)ccc1CNc1nc2c(N)ncnc2n1[C@@H]1O[C@H](CO)[C@@H](O)[C@H]1O	9300
OCCCCOc1cc(CNc2nc3ccccc3n2[C@@H]2O[C@H](CO)[C@@H](O)[C@H]2O)ccc1-c1ccccc1	62

(A) COC(=O)COc1cc(CNc2nc3c(N)ncnc3n2[C@@H]2O[C@H](CO)[C@@H](O)[C@H]2O)ccc1-c1ccccc1
(B) Nc1ncnc2c1nc(NCc1ccc(-c3ccccn3)cc1)n2[C@@H]1O[C@H](CO)[C@@H](O)[C@H]1O
(C) Nc1ncnc2c1nc(NCc1ccc(-c3ccccc3)c(OCCCCO)c1)n2[C@@H]1O[C@H](CO)[C@@H](O)[C@H]1O
Query :: Sort these compounds on IC50 so the largest reading comes first. As an answer, provide the labels arranged in the order called for.
Result :: A, B, C

(1) COc1cc(-c2ccccc2)ccc1CNc1nc2c(N)ncnc2n1[C@@H]1O[C@H](CO)[C@@H](O)[C@H]1O
(2) NC(=O)COc1cc(CNc2nc3c(N)ncnc3n2[C@@H]2O[C@H](CO)[C@@H](O)[C@H]2O)ccc1-c1ccccc1
Query :: Lab note: record which item had the higher IC50, 1 or 2 . // output: label of the selected item
Result :: 2
(2: 5500 nM, 1: 1100 nM)

* * *

Test: Tmax in Sprague-Dawley rat at 10 mg/kg, po by LC/MS analysis
Assay type: ADME, organism-based
Conditions: in vivo
quantity: Tmax (min)
Respond numerically; units are min and should not be typed.

Query :: For the compound OCCCCOc1cc(CNc2nc3ccccc3n2[C@@H]2O[C@H](CO)[C@@H](O)[C@H]2O)ccc1-c1ccccc1 , what Tmax is on record?
Result :: 49.8

* * *

Biological target: Sodium/nucleoside cotransporter 2 (Rattus norvegicus, UniProt Q62773)
Sequence (Q62773 whole entry): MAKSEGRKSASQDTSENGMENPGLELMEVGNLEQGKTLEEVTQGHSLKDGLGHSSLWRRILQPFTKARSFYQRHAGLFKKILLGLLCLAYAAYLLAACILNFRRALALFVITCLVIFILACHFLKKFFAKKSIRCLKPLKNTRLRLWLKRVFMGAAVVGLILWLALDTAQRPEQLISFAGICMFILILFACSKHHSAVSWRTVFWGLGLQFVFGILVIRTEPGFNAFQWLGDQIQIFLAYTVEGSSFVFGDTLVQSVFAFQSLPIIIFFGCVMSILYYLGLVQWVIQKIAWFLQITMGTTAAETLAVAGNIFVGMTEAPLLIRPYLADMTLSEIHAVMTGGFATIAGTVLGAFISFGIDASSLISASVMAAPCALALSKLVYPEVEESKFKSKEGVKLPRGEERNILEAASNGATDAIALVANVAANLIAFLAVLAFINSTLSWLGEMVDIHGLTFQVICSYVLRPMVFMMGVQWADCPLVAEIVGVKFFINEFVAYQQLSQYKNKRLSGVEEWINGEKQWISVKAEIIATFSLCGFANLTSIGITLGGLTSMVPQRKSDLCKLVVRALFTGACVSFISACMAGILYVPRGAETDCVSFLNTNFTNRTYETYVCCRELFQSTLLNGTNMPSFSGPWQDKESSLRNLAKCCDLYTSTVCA
Assay: Inhibition of rat CNT2 expressed in African green monkey COS7 cells assessed as reduction of [14C]-inosine uptake by liquid scintillation counting analysis
pIC50: −log10 of the molar value.
quantity: pIC50

(a) OCCCCOc1cc(CNc2nc3ccccc3n2[C@@H]2O[C@H](CO)[C@@H](O)[C@H]2O)ccc1-c1ccccc1
(b) Nc1ncnc2c1nc(NCc1ccc(-c3ccccc3)c(OCCCO)c1)n2[C@@H]1O[C@H](CO)[C@@H](O)[C@H]1O
Query :: Lab note: record which item had the higher pIC50, a or b . // output: label of the selected item
Result :: a

* * *

Target: Sodium/nucleoside cotransporter 2 (Rattus norvegicus) (UniProt Q62773)
Assay: Inhibition of rat CNT2 expressed in African green monkey COS7 cells assessed as reduction of [14C]-inosine uptake at 100 uM by liquid scintillation counting analysis
Assay type: cell-based
Settings: COS-7
Active and inactive are the calls of the source. The calls are words filed in the database; no cut-off is given here.
quantity: inhibition

chemical_smiles	target_of_assay	inhibition
Nc1ncnc2c1nc(NCc1ccc(-c3ccccc3)c(O)c1)n2[C@@H]1O[C@H](CO)[C@@H](O)[C@H]1O	Sodium/nucleoside cotransporter 2 (Rattus norvegicus) (UniProt Q62773)	inactive
CCCOc1cc(-c2ccccc2)ccc1CNc1nc2c(N)ncnc2n1[C@@H]1O[C@H](CO)[C@@H](O)[C@H]1O	Sodium/nucleoside cotransporter 2 (Rattus norvegicus) (UniProt Q62773)	inactive
Nc1ncnc2c1nc(NCc1ccc(-c3ccncc3)cc1)n2[C@@H]1O[C@H](CO)[C@@H](O)[C@H]1O	Sodium/nucleoside cotransporter 2 (Rattus norvegicus) (UniProt Q62773)	inactive
CCCOc1cc(CNc2nc3c(N)ncnc3n2[C@@H]2O[C@H](CO)[C@@H](O)[C@H]2O)ccc1-c1ccccc1	Sodium/nucleoside cotransporter 2 (Rattus norvegicus) (UniProt Q62773)	inactive
Nc1ncnc2c1nc(NCc1ccc(-c3ccccn3)cc1)n2[C@@H]1O[C@H](CO)[C@@H](O)[C@H]1O	Sodium/nucleoside cotransporter 2 (Rattus norvegicus) (UniProt Q62773)	inactive

Query :: For the compound NC(=O)COc1cc(CNc2nc3c(N)ncnc3n2[C@@H]2O[C@H](CO)[C@@H](O)[C@H]2O)ccc1-c1ccccc1 , what inhibition is on record?
Result :: < 5%

Query :: For the compound CCOc1cc(CNc2nc3c(N)ncnc3n2[C@@H]2O[C@H](CO)[C@@H](O)[C@H]2O)ccc1-c1ccccc1 , what inhibition is on record?
Result :: inactive

Query :: For the compound COc1cc(-c2ccccc2)ccc1CNc1nc2c(N)ncnc2n1[C@@H]1O[C@H](CO)[C@@H](O)[C@H]1O , what inhibition is on record?
Result :: inactive

Query :: For the compound Nc1ncnc2c1nc(NCc1ccc(-c3ccccc3)cc1)n2[C@@H]1O[C@H](CO)[C@@H](O)[C@H]1O , what inhibition is on record?
Result :: inactive

Query :: For the compound Nc1ncnc2c1nc(NCc1ccc(-c3ccccc3)c(OCCO)c1)n2[C@@H]1O[C@H](CO)[C@@H](O)[C@H]1O , what inhibition is on record?
Result :: 49%

Query :: For the compound Nc1ncnc2c1nc(NCc1ccc(-c3ccccc3)cc1O)n2[C@@H]1O[C@H](CO)[C@@H](O)[C@H]1O , what inhibition is on record?
Result :: inactive

Query :: For the compound COc1cc(CNc2nc3c(N)ncnc3n2[C@@H]2O[C@H](CO)[C@@H](O)[C@H]2O)ccc1-c1ccccc1 , what inhibition is on record?
Result :: inactive

Query :: For the compound Nc1ncnc2c1nc(NCc1ccc(-c3cccnc3)cc1)n2[C@@H]1O[C@H](CO)[C@@H](O)[C@H]1O , what inhibition is on record?
Result :: 11%

Query :: For the compound CC(C)Oc1cc(CNc2nc3c(N)ncnc3n2[C@@H]2O[C@H](CO)[C@@H](O)[C@H]2O)ccc1-c1ccccc1 , what inhibition is on record?
Result :: inactive

Query :: For the compound CCOc1cc(-c2ccccc2)ccc1CNc1nc2c(N)ncnc2n1[C@@H]1O[C@H](CO)[C@@H](O)[C@H]1O , what inhibition is on record?
Result :: inactive

Query :: For the compound COC(=O)COc1cc(CNc2nc3c(N)ncnc3n2[C@@H]2O[C@H](CO)[C@@H](O)[C@H]2O)ccc1-c1ccccc1 , what inhibition is on record?
Result :: inactive

Query :: For the compound CC(C)Oc1cc(-c2ccccc2)ccc1CNc1nc2c(N)ncnc2n1[C@@H]1O[C@H](CO)[C@@H](O)[C@H]1O , what inhibition is on record?
Result :: inactive
